Numbers sourced from patent US20140256771A1.

study system: Orai1/STIM1 (Homo sapiens)
Construct: expressed in transfected cells; host or cells: HEK-293
assay name: Fluorescence-based assay of store-operated calcium entry in Orai1/STIM1 stable cells
Type: cell-based
Parameters: key: A < 0.6 μmol; 0.6 μmol ≦ B ≦ 1.2 μmol; C > 1.2 μmol; — = no fit
condition parameters: Table iii; HEK-293 cells stably expressing human STIM1 and Orai1; 50% inhibition of Peak-Basal fluo-4 signal
Description: A. Fluorescence-based Assay of Store-Operated Calcium Entry in Orai1/STIM1 Stable Cells. […] The day prior to performing the assay Orai1/STIM1 stable cells are plated in 50 μL of complete medium at 90-95% confluence in a 384 well plate. […] The initial baseline fluorescence signal is then measured with a FLIPR^384 (Molecular Devices) plate reader. Calcium entry is initiated by adding 5 μl of 10× CaCl2 (10 mM) in HBSS, and changes in cellular fluorescence are measured with the FLIPR^384 plate reader. […]
measurement kind: Orai1/STIM1 (IC50, μmol)

Cc1nnsc1CNc1ccc(-n2nc(C(F)(F)F)cc2C)cc1 = —
Cc1cc2c(cc1-c1ccc(NCc3c(C)cccc3F)cc1F)OC(F)(F)O2 = Max inh. <50%
Cn1nc(C(F)(F)F)cc1-c1c(F)cc(NCc2ccccc2F)cc1F = Max inh. <50%
Cn1nc(C(F)(F)F)cc1-c1c(F)cc(NCc2ccc(F)cc2F)cc1F = —

###

study system: Orai1/STIM1 (Homo sapiens, UniProt Q96D31)
Construct: expressed in transfected cells; host or cells: HEK-293
Sequence (Q96D31 whole entry): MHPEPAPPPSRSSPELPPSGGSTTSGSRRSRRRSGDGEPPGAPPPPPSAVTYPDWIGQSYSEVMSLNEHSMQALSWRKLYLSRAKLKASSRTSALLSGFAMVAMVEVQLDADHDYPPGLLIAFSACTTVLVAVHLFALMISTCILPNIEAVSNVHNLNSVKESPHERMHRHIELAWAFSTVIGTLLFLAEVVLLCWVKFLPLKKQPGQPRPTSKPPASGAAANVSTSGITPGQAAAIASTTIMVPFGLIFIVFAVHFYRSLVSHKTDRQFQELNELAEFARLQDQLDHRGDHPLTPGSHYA
assay name: Fluorescence-based assay of store-operated calcium entry in Orai1/STIM1 stable cells
Type: cell-based
condition parameters: Table iv; HEK-293 cells stably expressing human STIM1 and Orai1; 50% inhibition of Peak-Basal fluo-4 signal; read-out: Orai1/STIM1 (IC50, μmol)
measurement kind: IC50

The cases that follow already have their IC50 on record.
Cc1cc2c(cc1-c1ccc(NC(=O)c3snnc3C)cc1)OC(F)(F)O2 = 600 to 1200 nM
Cc1cccc(F)c1C(=O)Nc1ccc(-c2cn(C(F)F)nc2C)c(F)c1 = < 600 nM

Batch of 2 compounds: report IC50 for each.
1. Cc1nn(C(F)F)cc1-c1ccc(NC(=O)c2c(F)ccc(F)c2F)cc1
2. Cn1nc(C(F)(F)F)cc1-c1ccc(NC(=O)c2c(F)cccc2F)c(F)c1

< 600 nM
< 600 nM

Batch of 7 compounds: report IC50 for each.
1. CCn1nc(C(F)(F)F)cc1-c1ccc(NC(=O)c2c(F)cccc2F)cc1
2. Cc1ccccc1C(=O)Nc1ccc(-c2nc(C(F)(F)F)sc2C)cc1
3. Cn1nc(C(F)(F)F)cc1-c1c(F)cc(NC(=O)c2c(F)cncc2F)cc1F
4. Cn1nc(C(F)(F)F)cc1-c1ccc(NC(=O)c2c(F)ccc(F)c2F)cc1
5. Cc1cc2c(cc1-c1ccc(NC(=O)c3c(C)cccc3F)cc1F)OC(F)(F)O2
6. Cc1nc(C(F)(F)F)cn1-c1ccc(NC(=O)c2c(F)cc(F)cc2F)cc1
7. Cc1nc(C(F)(F)F)cn1-c1ccc(NC(=O)c2c(F)cncc2F)cc1F

< 600 nM
< 600 nM
600 to 1200 nM
< 600 nM
> 1200 nM
> 1200 nM
> 1200 nM

Batch of 4 compounds: report IC50 for each.
1. Cn1nc(C(F)(F)F)cc1-c1ccc(NC(=O)c2c(F)ccc(F)c2F)cc1F
2. Cn1nc(C(F)(F)F)cc1-c1c(F)cc(NC(=O)c2c(F)cccc2F)cc1F
3. CCn1nc(C(F)(F)F)cc1-c1ccc(NC(=O)c2c(F)cccc2F)cc1F
4. Cn1nc(C(F)(F)F)cc1-c1c(F)cc(NC(=O)c2ccccc2F)cc1F

["600 to 1200 nM", "> 1200 nM", "< 600 nM", "< 600 nM"]

Batch of 6 compounds: report IC50 for each.
1. Cc1cc(C(F)(F)F)nn1-c1ccc(NC(=O)c2ccccc2F)cc1
2. Cn1nc(C(F)(F)F)cc1-c1ccc(NC(=O)c2cncc(F)c2)cc1F
3. Cc1cc2c(cc1-c1ccc(NC(=O)c3ccccc3F)cc1F)OC(F)(F)O2
4. Cc1cnccc1C(=O)Nc1ccc(-c2cc(C(F)(F)F)nn2C)c(F)c1
5. Cc1ncsc1C(=O)Nc1ccc(-c2cc(C(F)(F)F)nn2C)c(F)c1
6. Cc1nc(C(F)(F)F)cn1-c1ccc(NC(=O)c2c(F)ccc(F)c2F)cc1F

1: < 600 nM; 2: < 600 nM; 3: > 1200 nM; 4: 600 to 1200 nM; 5: < 600 nM; 6: > 1200 nM

Find the recorded IC50 belonging to Cc1nnsc1C(=O)Nc1ccc(-n2nc(C(F)(F)F)cc2C)cc1 and report it.
600 to 1200 nM

###

What pIC50 was measured for each of the following?
study system: Orai1/STIM1 (Homo sapiens, UniProt Q96D31)
Construct: expressed in transfected cells; host or cells: HEK-293
assay name: Fluorescence-based assay of store-operated calcium entry in Orai1/STIM1 stable cells
Assay type: cell-based
condition parameters: Table iii; HEK-293 cells stably expressing human STIM1 and Orai1; 50% inhibition of Peak-Basal fluo-4 signal; read-out: Orai1/STIM1 (IC50, μmol)
pIC50: −log10 of the molar value.

The cases that follow already have their pIC50 on record.
Cc1cccc(F)c1CNc1ccc(-c2cn(C(F)F)nc2C)c(F)c1 = > 6.22
Cn1nc(C(F)(F)F)cc1-c1ccc(NCc2ccccc2F)cc1 = > 6.22
Cc1cccc(F)c1CNc1ccc(-c2cc(C(F)(F)F)nn2C)c(F)c1 = > 6.22
Cn1nc(C(F)(F)F)cc1-c1ccc(NCc2c(Cl)cnn2C)cc1 = 5.92 to 6.22

Batch of 3 compounds: report pIC50 for each.
1. Cc1nc(C(F)(F)F)cn1-c1ccc(NCc2ccccc2F)cc1F
2. Cc1nnsc1CNc1ccc(-c2cc(C(F)(F)F)nn2C)c(F)c1
3. Cc1cc(C(F)(F)F)nn1-c1ccc(NCc2c(F)cncc2F)cc1

1. > 6.22
2. < 5.92
3. 5.92 to 6.22

###

study system: Orai1/STIM1 (Homo sapiens, UniProt Q96D31)
Construct: expressed in transfected cells; host or cells: HEK-293
assay name: Fluorescence-based assay of store-operated calcium entry in Orai1/STIM1 stable cells
Type: cell-based
condition parameters: Table iv; HEK-293 cells stably expressing human STIM1 and Orai1; 50% inhibition of Peak-Basal fluo-4 signal; read-out: Orai1/STIM1 (IC50, μmol)
measurement kind: IC50

The cases that follow already have their IC50 on record.
Cc1cc(C(F)(F)F)nn1-c1ccc(NC(=O)c2ccc(F)cc2F)cc1 = < 600 nM
Cn1nc(C(F)(F)F)cc1-c1ccc(NC(=O)c2ccccc2F)cc1F = < 600 nM
Cc1nnsc1C(=O)Nc1ccc(-c2cc(C(F)(F)F)nn2C)c(F)c1 = < 600 nM
Cn1nc(C(F)(F)F)cc1-c1ccc(NC(=O)c2c(F)cccc2F)cc1F = < 600 nM
Cc1cc(F)ccc1C(=O)Nc1ccc(-c2cc(C(F)(F)F)nn2C)c(F)c1 = < 600 nM
Cn1nc(C(F)(F)F)cc1-c1ccc(NC(=O)c2ccc(F)cc2F)cc1 = < 600 nM
Cc1cc2c(cc1-c1ccc(NC(=O)c3ccccc3F)cc1)OC(F)(F)O2 = 600 to 1200 nM
Cc1nn(C(F)F)cc1-c1ccc(NC(=O)c2c(F)cccc2F)cc1F = < 600 nM

Batch of 2 compounds: report IC50 for each.
1. Cc1ccccc1C(=O)Nc1ccc(-c2cc(C(F)(F)F)nn2C)c(F)c1
2. CCn1nc(C(F)(F)F)cc1-c1ccc(NC(=O)c2c(F)cc(F)cc2F)cc1F

1: < 600 nM; 2: 600 to 1200 nM

Batch of 4 compounds: report IC50 for each.
1. Cn1nc(C(F)(F)F)cc1-c1ccc(NC(=O)c2c(F)cncc2F)cc1F
2. Cc1cc(F)ccc1C(=O)Nc1ccc(-n2nc(C(F)(F)F)cc2C)c(F)c1
3. Cc1cc(C(F)(F)F)nn1-c1ccc(NC(=O)c2c(F)cc(F)cc2F)cc1
4. Cc1nn(C(F)F)cc1-c1ccc(NC(=O)c2c(F)cc(F)cc2F)cc1

1: < 600 nM; 2: 600 to 1200 nM; 3: 600 to 1200 nM; 4: < 600 nM

Quick check: IC50 on Orai1/STIM1 (Homo sapiens, UniProt Q96D31), item Cn1nc(C(F)(F)F)cc1-c1ccc(NC(=O)c2c(F)cccc2F)cc1 ?
< 600 nM

###

What pIC50 was measured for each of the following?
study system: Orai1/STIM1 (Homo sapiens)
Construct: expressed in transfected cells; host or cells: HEK-293
assay name: Fluorescence-based assay of store-operated calcium entry in Orai1/STIM1 stable cells
Assay type: cell-based
condition parameters: Table iv; HEK-293 cells stably expressing human STIM1 and Orai1; 50% inhibition of Peak-Basal fluo-4 signal; read-out: Orai1/STIM1 (IC50, μmol)
pIC50: −log10 of the molar value.

Batch of 7 molecules: report pIC50 for each.
1. Cc1cc(C(F)(F)F)nn1-c1ccc(NC(=O)c2c(F)cccc2F)cc1
2. Cc1cc2c(cc1-c1ccc(NC(=O)c3c(F)cncc3F)cc1)OC(F)(F)O2
3. Cc1cc2c(cc1-c1ccc(NC(=O)c3ccncc3F)cc1)OC(F)(F)O2
4. Cc1nn(C(F)F)cc1-c1ccc(NC(=O)c2c(F)cccc2F)cc1
5. Cc1cc2c(cc1-c1ccc(NC(=O)c3c(F)cccc3F)cc1)OC(F)(F)O2
6. Cc1nc(C(F)(F)F)cn1-c1ccc(NC(=O)c2c(F)cc(F)cc2F)cc1F
7. Cn1nc(C(F)(F)F)cc1-c1ccc(NC(=O)c2ccccc2F)cc1

1: 5.92 to 6.22; 2: < 5.92; 3: 5.92 to 6.22; 4: > 6.22; 5: < 5.92; 6: < 5.92; 7: > 6.22
